# Test system: RAW 264.7 macrophages
# assay comment: SAFIRE macrophage assay: host toxicity (adherent macrophage count, morphology)
# Format: cell-based
# measurement context: 5 uM
Overview of recorded 5 uM Avg Cell # Score for various compounds
endpoint label: 5 uM Avg Cell # Score

> print(dat)
                                    compound          target.entity  value.reported
 1  NC1CCN(CC(O)COc2c(Cl)cccc2Cl)CC1 (centres unmarked) [CU192]  RAW 264.7 macrophages              96
 2  N#Cc1ccccc1OCC(O)CN1CCC(Nc2nccc(C(F)(F)F)n2)C1 (centres unmarked) [CU093]  RAW 264.7 macrophages              93
 3  OC(COc1ccc(F)cc1F)CN1CCC(Nc2nccc(C(F)(F)F)n2)CC1 (centres unmarked) [CU039]  RAW 264.7 macrophages              90
 4  COCCN1CCN(CC(O)COc2ccc(Cl)c(Cl)c2)CC1 (centres unmarked) [CU211]  RAW 264.7 macrophages             120
 5  OC(COc1ccc(Cl)c(Cl)c1)CN1CCC(N2CCOCC2)CC1 (centres unmarked) [CU185]  RAW 264.7 macrophages             120
 6  OC(COc1ccccc1Cl)CN1CCC(NC2CC2)C1 (centres unmarked) [CU141]  RAW 264.7 macrophages             116
 7  OC(COc1ccc(Cl)c(Cl)c1)CN1CCC(Nc2nccc(C(F)(F)F)n2)C1 (centres unmarked) [CU089]  RAW 264.7 macrophages             101
 8  O[C@@H](COc1ccc(Cl)c(Cl)c1)CN1CCC(Nc2nccc(C(F)(F)F)n2)CC1 [CU138]  RAW 264.7 macrophages              85
 9  CC(C)(C)OC(=O)NC1CCN(CC(O)COc2ccc(Cl)c(Cl)c2)C1 (centres unmarked) [CU031]  RAW 264.7 macrophages              88
10  OC(COc1ccc(F)cc1F)CN1CCC(Nc2ncccn2)CC1 (centres unmarked) [CU048]  RAW 264.7 macrophages              85
11  OC(COc1ccc2c(c1)OCO2)CN1CCC(Nc2nccc(C(F)(F)F)n2)CC1 (centres unmarked) [CU080]  RAW 264.7 macrophages              86

----------
# Tested on: RAW 264.7 macrophages
# assay comment: SAFIRE macrophage assay: host toxicity (adherent macrophage count, morphology)
# Assay type: cell-based
# measurement context: 25 uM compound; n=1; DMSO solvent control = 100
endpoint label: 25 uM Avg Cell # Score

> print(dat)
                                    molecule          target.entity          endpoint.label  value.reported
 1  CC1(N)CCN(CC(O)COc2cc(Cl)cc(Cl)c2)CC1 (stereo not drawn)  RAW 264.7 macrophages  25 uM Avg Cell # Score              90
 2  OC(COc1cc(Cl)cc(Cl)c1)CN1CCC(n2ccnc2)CC1 (stereo not drawn)  RAW 264.7 macrophages  25 uM Avg Cell # Score             108
 3      O[C@@H](COc1ccc(Cl)c(Cl)c1)CN1CCCCC1  RAW 264.7 macrophages  25 uM Avg Cell # Score             120
 4  NC1CCCN(CC(O)COc2cc(Cl)cc(Cl)c2)CC1 (stereo not drawn)  RAW 264.7 macrophages  25 uM Avg Cell # Score              19
 5  OC(COc1cc(Cl)cc(Cl)c1)CN1CCCC1 (stereo not drawn)  RAW 264.7 macrophages  25 uM Avg Cell # Score             108
 6  NCCC1CCN(CC(O)COc2ccc(Cl)c(Cl)c2)CC1 (stereo not drawn)  RAW 264.7 macrophages  25 uM Avg Cell # Score              56
 7  N[C@H]1CC[C@H](NCC(O)COc2ccc(Cl)c(Cl)c2)CC1 (stereo partly drawn)  RAW 264.7 macrophages  25 uM Avg Cell # Score             106
 8  OC(COc1cc(Cl)cc(Cl)c1)CN1CCCCC1 (stereo not drawn)  RAW 264.7 macrophages  25 uM Avg Cell # Score             111
 9  NC1CCN(CC(O)COc2cccc(C(F)(F)F)c2)CC1 (stereo not drawn)  RAW 264.7 macrophages  25 uM Avg Cell # Score             113
10  NCCC1CCN(CC(O)COc2ccc(Cl)c(Cl)c2)C1 (stereo not drawn)  RAW 264.7 macrophages  25 uM Avg Cell # Score             101
11  N[C@@H]1CCN(C[C@@H](O)COc2ccc(Cl)c(Cl)c2)C1  RAW 264.7 macrophages  25 uM Avg Cell # Score             104
12       O[C@@H](COc1ccc(Cl)c(Cl)c1)CN1CCCC1  RAW 264.7 macrophages  25 uM Avg Cell # Score             125
